tested on: human conjunctival tissue mast cells; assay: Inhibition of anti-IgE induced histamine release from human conjunctival tissue mast cells (HCTMC); format: cell-based; settings: goat-anti-human IgE 10 μg/mL challenge 15 min after 15 min drug treatment, individual determinations (values outside brackets), read-out: IC50
MEASURE NAME: IC50 (µM)
Answers are plain numbers, in µM.

// query IC50 value for entry CNC(=O)c1cccc(SSc2cccc(C(=O)NC)c2)c1 [Compound 6] 0.222

###

test system: human conjunctival tissue mast cells; test: Inhibition of anti-IgE induced histamine release from human conjunctival tissue mast cells (HCTMC); type: cell-based; settings: Homo sapiens, Mast cell, 0.25 h, goat-anti-human IgE 10 μg/mL challenge 15 min after 15 min drug treatment, individual determinations (values outside brackets), read-out: IC50
MEASURE NAME: pIC50
One number for each entry, as −log10 of the molar value.

// query pIC50 value for entry CNC(=O)c1cccc(SSc2cccc(C(=O)NC)c2)c1 [Compound 6] 6.40
